Value source: ChEMBL document CHEMBL3352268

Here we list compounds with their recorded IC50 when tested on Procathepsin L (Homo sapiens, UniProt P07711).
Sequence (P07711 whole entry): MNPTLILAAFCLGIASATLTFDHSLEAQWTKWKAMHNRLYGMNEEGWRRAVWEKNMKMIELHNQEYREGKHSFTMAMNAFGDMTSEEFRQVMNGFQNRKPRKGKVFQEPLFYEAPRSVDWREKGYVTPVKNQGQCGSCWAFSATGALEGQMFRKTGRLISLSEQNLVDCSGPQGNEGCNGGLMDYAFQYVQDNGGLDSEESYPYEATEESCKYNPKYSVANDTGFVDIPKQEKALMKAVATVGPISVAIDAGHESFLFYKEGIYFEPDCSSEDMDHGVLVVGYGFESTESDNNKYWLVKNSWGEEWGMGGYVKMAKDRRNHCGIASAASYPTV
Remember to put the unit after the number in your answer.

1) CC(C)C[C@H](NC(=O)[C@H]1O[C@@H]1C(=O)O)C(=O)NCCCCN=C(N)N : 30 nM

Reading of IC50 for CC(C)=CCC/C(C)=C\Cc1c(O)cc(O)c(C(=O)CCc2ccc(O)cc2)c1O with Procathepsin L (Homo sapiens, UniProt P07711): 1000 nM

###

# ASSAY SYSTEM: Cathepsin B (Homo sapiens, UniProt P07858)
pIC50: −log10 of the molar value.
OBSERVABLE: pIC50

Input CC(C)=CCC/C(C)=C\Cc1c(O)cc(O)c(C(=O)CCc2ccc(O)cc2)c1O . Output pIC50: < 4.00

###

Listing of recorded pEC50 by entry.
# System: Plasmodium falciparum
# PROTOCOL DETAILS: Antimalarial activity against Plasmodium falciparum Dd2 after 72 hrs by SYBR Green-based parasite proliferation assay
# Type: functional
# EXPERIMENTAL CONDITIONS: Dd2, 72 h
# pEC50 is unitless: minus log10 of the molar concentration; print number only

1) CC1(C)CCc2c(cc(O)c(C(=O)CCc3ccc4c(c3)CC3C(C)(C)CCCC3(C)O4)c2O)O1 (configuration not stated) : 4.91

Now consider the entry below.
Reading of pEC50 for CC1(C)CCc2cc(CCC(=O)c3c(O)cc4c(c3O)CCC(C)(C)O4)ccc2O1 with Plasmodium falciparum: 4.93
